Consider the following binders; for each one, report its koff.
tested_on: T1, Histidine-tagged ROR1 protein (extracellular region) (UniProt Q01973 30-406)
T1 construct: extracellular domain; also called extracellular portion of ROR1 bearing a Histidine tag; not shown: Histidine tag
method_description: SPR, Biacore X100; antibody captured by anti-human IgG1 on CM5 chip, His-tagged ROR1 extracellular portion injected at 1.5-100 nM
Numbers only, in s⁻¹.

Some solved entries appear below for comparison.
binder	koff (s⁻¹)
Clone G3 chimeric ROR1 antibody (antibody, V domains shown) VH: EVQLQESGPGLVKPAQSLSLTCSVTGYSITNMYRWNWIRKFPGNKLEWMGYINTAGSTDYSPSLRGRVSITGDTSKNQFFLHLTSVTTEDTATYYCAGFITNPFDFWGQGVMVTVSS VL: DVVMTQTPVSLPVSLGGQVSISCRSSQSLEHSNGDTFLHWYLQKPGQSPRLLIYRVSNRFSGVPDRFSGSGSGTDFTLKISRIEPEDLGDYYCLQSTHFPNTFGAGTKLELK	0.000266
Clone A chimeric ROR1 antibody (antibody, V domains shown, also called SA1) VH: QVQLQQSGTELVKPASSVRISCKASGYTLTTNYMHWIRQQPGNGLEWIGWIYPGNGNTKFNHKFDGRTTLTADKSSSIVYMQLSSLTSEDSAVYFCARSDFDYWGQGVMVTVSS VL: DIQMTQSPSSMSASLGDRVTFTCQASQDIGNNLIWFQQKPGKSPRPLMYFATSLANGVPSRFSGSRSGSDYSLTISSLESEDLADYHCLQYREYPLTFGSGTKLDLK	0.00104

Now take the following binder into account.
Q) Any idea what its koff is? The binder is Clone E7 chimeric ROR1 antibody (antibody, V domains shown) VH: GKLVESGGGLLKPGGSLKLSCVASGFTFDKYWMHWVRQAPGKGLEWIAEIEYDGTETNYAPSIKDRFTISRDNAKNTLYLQMSNVRSEDAATYFCTTEEMYTTDYYYGFAYWGQGTLVTVSS VL: DIVLTQSPALAVSVGQRATISCRASQSVSISRYNFMHWYQQKPGQQPKLLIYRASNLASGIPARFSGSGSGTDFTLTINPVQADDIATYYCQQNRESPRTFGGGTKLELK
A) 0.000849
